study-target: T1, Human TFPI (tissue factor pathway inhibitor) (human, UniProt P10646 29-304, limits assumed)
T1 construct: Coated at 1 ug/ml on Maxisorb plates for the ELISA; For the Biacore work the human TFPI came from American Diagnostica
T1 sequence (looked up): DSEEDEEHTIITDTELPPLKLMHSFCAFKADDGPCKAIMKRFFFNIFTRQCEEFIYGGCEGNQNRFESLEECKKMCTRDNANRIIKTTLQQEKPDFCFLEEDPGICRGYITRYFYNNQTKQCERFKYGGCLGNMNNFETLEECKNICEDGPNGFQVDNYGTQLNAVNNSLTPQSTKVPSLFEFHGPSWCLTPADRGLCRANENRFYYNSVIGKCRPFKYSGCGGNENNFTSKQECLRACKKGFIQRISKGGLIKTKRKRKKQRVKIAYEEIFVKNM
measurement-description: ELISA on plate-coated human TFPI; Fab expression media bound, then 1 h at 37 C in PBS pH 7.0; amplex red
Sorting guide: entries reporting TFPI ELISA signal, pH 7.0 beneath 2000 go in the class 1 pile, the rest go in the class 0 pile.

Worked examples, 5 binders total:
{"binder": "2A8-g200 Fab VL-Y31H (Fab, V domains shown, Member of the 2A8-g200 Fab histidine scanning library) VH: EVQLVESGGGLVQPGGSLRLSCAASGFTFSSYGMDWVRQAPGKGLEWVSSIRGSRGSTYYADSVKGRFTISRDNSKNTLYLQMNSLRAEDTAVYYCARLYRYWFDYWGQGTLVTVSS VL: SYELTQPPSVSVSPGQTARITCSGDNLPKYHAHWYQQKPGQAPVVVIFYDVNRPSGIPERFSGSNSGNTATLTISGTQAMDEADYYCQAWWSSTPVFGGGTKLTVLG", "class-name": "class 1"}
{"binder": "2A8-g200 Fab VL-V45H (Fab, V domains shown, Member of the 2A8-g200 Fab histidine scanning library) VH: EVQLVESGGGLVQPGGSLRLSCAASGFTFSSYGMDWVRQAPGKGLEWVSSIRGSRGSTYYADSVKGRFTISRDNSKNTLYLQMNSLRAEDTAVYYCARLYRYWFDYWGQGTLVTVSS VL: SYELTQPPSVSVSPGQTARITCSGDNLPKYYAHWYQQKPGQAPVHVIFYDVNRPSGIPERFSGSNSGNTATLTISGTQAMDEADYYCQAWWSSTPVFGGGTKLTVLG", "class-name": "class 0"}
{"binder": "2A8-g200 Fab VH-Y100H (Fab, V domains shown, Member of the 2A8-g200 Fab histidine scanning library) VH: EVQLVESGGGLVQPGGSLRLSCAASGFTFSSYGMDWVRQAPGKGLEWVSSIRGSRGSTYYADSVKGRFTISRDNSKNTLYLQMNSLRAEDTAVYYCARLHRYWFDYWGQGTLVTVSS VL: SYELTQPPSVSVSPGQTARITCSGDNLPKYYAHWYQQKPGQAPVVVIFYDVNRPSGIPERFSGSNSGNTATLTISGTQAMDEADYYCQAWWSSTPVFGGGTKLTVLG", "class-name": "class 0"}
{"binder": "2A8-g200 Fab VL-W90H (Fab, V domains shown, Member of the 2A8-g200 Fab histidine scanning library) VH: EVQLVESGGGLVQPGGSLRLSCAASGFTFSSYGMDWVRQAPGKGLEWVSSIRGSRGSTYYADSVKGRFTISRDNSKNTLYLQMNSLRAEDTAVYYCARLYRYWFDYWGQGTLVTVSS VL: SYELTQPPSVSVSPGQTARITCSGDNLPKYYAHWYQQKPGQAPVVVIFYDVNRPSGIPERFSGSNSGNTATLTISGTQAMDEADYYCQAHWSSTPVFGGGTKLTVLG", "class-name": "class 1"}
{"binder": "2A8-g200 Fab VL-L27H (Fab, V domains shown, Member of the 2A8-g200 Fab histidine scanning library) VH: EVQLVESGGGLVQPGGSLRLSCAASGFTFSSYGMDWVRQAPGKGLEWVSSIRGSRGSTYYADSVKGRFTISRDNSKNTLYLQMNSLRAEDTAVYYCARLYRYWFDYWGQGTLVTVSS VL: SYELTQPPSVSVSPGQTARITCSGDNHPKYYAHWYQQKPGQAPVVVIFYDVNRPSGIPERFSGSNSGNTATLTISGTQAMDEADYYCQAWWSSTPVFGGGTKLTVLG", "class-name": "class 0"}

[in] Dear colleague, could you confirm whether TFPI ELISA signal, pH 7.0 of 2A8-g200 Fab VL-F48H (Fab, V domains shown, Member of the 2A8-g200 Fab histidine scanning library) VH: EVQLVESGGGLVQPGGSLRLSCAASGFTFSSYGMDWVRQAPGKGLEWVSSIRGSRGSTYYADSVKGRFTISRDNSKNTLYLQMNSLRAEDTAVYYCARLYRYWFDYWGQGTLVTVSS VL: SYELTQPPSVSVSPGQTARITCSGDNLPKYYAHWYQQKPGQAPVVVIHYDVNRPSGIPERFSGSNSGNTATLTISGTQAMDEADYYCQAWWSSTPVFGGGTKLTVLG falls below 2000? Thanks.
[out] class 0

Sourced from patent US20180282430A1
